Taken from patent US9012481B2.

Each entry below lists one item and its recorded melting point value.
Give the value, in units of °C, as a plain number.

I have this compound here, Cc1cccc2sc(NC(=O)NCC(=O)O)nc12 , and I need its recorded melting point.
203

How about Cc1cc2nc(NC(=O)NCC(=O)O)sc2cc1C ?
198

Next compound up: CCOC(=O)CNC(=S)Nc1nc2ccccc2s1
204

====

In this section we review reported melting point values for a set of compounds.
The reply should be a number in °C, with the unit left off.

CCOc1ccc2nc(NC(=S)NCC(=O)O)sc2c1	200

Reported melting point, compound Cn1c(NC(=O)NCCCC(=O)O)nc2ccccc21 : ____
197

Also need O=C(O)CNC(=S)Nc1nc2ccccc2s1 , thanks.
200
